Give measured pIC50 for each item. Keep answers brief.
target.system: Muscarinic acetylcholine receptor M1 (Homo sapiens, UniProt P11229)
Sequence (P11229 whole entry): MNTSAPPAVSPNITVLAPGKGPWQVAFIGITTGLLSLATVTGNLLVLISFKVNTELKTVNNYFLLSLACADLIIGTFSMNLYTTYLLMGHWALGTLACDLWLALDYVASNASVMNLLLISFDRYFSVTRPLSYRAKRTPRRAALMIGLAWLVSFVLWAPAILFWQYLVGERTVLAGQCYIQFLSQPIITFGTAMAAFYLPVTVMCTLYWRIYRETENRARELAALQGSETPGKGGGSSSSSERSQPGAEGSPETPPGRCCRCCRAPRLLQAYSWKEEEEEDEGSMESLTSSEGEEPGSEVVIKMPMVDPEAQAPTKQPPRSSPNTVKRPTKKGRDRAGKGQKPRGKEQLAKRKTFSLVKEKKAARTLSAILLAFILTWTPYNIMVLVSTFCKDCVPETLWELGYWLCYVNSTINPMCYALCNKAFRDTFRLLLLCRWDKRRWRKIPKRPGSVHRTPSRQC
experiment.notes: Antagonist activity at human SP/Myc epitope-tagged muscarinic M1 receptor expressed in HEK293T cells assessed as inhibition of carbachol-induced mVenus-fused beta-arrestin2 recruitment preincubated for 15 mins followed by carbachol induction measured after 2 mins by BRET assay
Format: cell-based, HEK-293T
Answers are plain numbers, as −log10 of the molar value.

O=C1CCc2ccccc2N1CCCN1CCN(c2ccccc2)CC1 6.08

Now look at this one.
Recorded pIC50 for O=C1CCc2ccccc2N1CCCN1CCC(Cc2ccccc2)CC1 , please? 5.92
